Method Description: Highest frequency of acute liver toxicity observed during clinical trials, expressed as a percentage. [column '% AIGUE' in source]
Measurement Parameters: human
Measured Endpoint: Hepatotoxicity (acute) (%)
Give the value in % but do not write % after it.

Compound | Measured Endpoint | Quantitative Result
CCCN1C[C@H](CSC)C[C@@H]2c3cccc4[nH]cc(c34)C[C@H]21 [PERGOLIDE] | Hepatotoxicity (acute) | 0
CC(C)(C#N)c1cc(Cn2cncn2)cc(C(C)(C)C#N)c1 | Hepatotoxicity (acute) | 0
N[C@H](C(=O)O)[C@@H]1CC(Cl)=NO1 | Hepatotoxicity (acute) | 0

Hepatotoxicity (acute) reading for `COc1cc2c(c(OC)c1OC)-c1ccc(OC)c(=O)cc1[C@@H](NC(C)=O)CC2` : 0

Hepatotoxicity (acute) reading for `NNC(=O)c1ccncc1` : 26.7

Hepatotoxicity (acute) reading for `O=NN(CCCl)C(=O)NC1CCCCC1` : 0

Hepatotoxicity (acute) reading for `C#C[C@]1(O)CC[C@H]2[C@@H]3CCC4=CC(=O)CCC4=C3C=C[C@@]21CC` : 0

----------
Measurement Parameters: human, serum
Listed here: items and their measured Hepatotoxicity (moderate).
# print the numeric value only

Hepatotoxicity (moderate) reading for CO[C@H]1/C=C/O[C@@]2(C)Oc3c(C)c(O)c4c(c3C2=O)C2=NC3(CCN(CC(C)C)CC3)NC2=C(NC(=O)/C(C)=C\C=C\[C@H](C)[C@H](O)[C@@H](C)[C@@H](O)[C@@H](C)[C@H](OC(C)=O)[C@@H]1C)C4=O [RIFABUTIN] : 6

Hepatotoxicity (moderate) reading for `N[C@@H](Cc1ccc(N(CCCl)CCCl)cc1)C(=O)O` : 1

Hepatotoxicity (moderate) reading for CC(=O)N(O)CCCCCNC(=O)CCC(=O)N(O)CCCCCNC(=O)CCC(=O)N(O)CCCCCN [DEFEROXAMINE] : 1

Hepatotoxicity (moderate) reading for COc1ccc2c(c1)c(CC(=O)OCC(=O)O)c(C)n2C(=O)c1ccc(Cl)cc1 [ACEMETACIN] : 0

Hepatotoxicity (moderate) reading for CCCc1cc(C(N)=S)ccn1 [PROTIONAMIDE] : 8

Hepatotoxicity (moderate) reading for CN(C)CC/C=C1/c2ccccc2Sc2ccc(Cl)cc21 [CHLORPROTHIXENE] : 0

Hepatotoxicity (moderate) reading for CNCCNc1ccc2c3c(nn2CCNCCO)-c2c(O)ccc(O)c2C(=O)c13 [TELOXANTRONE] : 2

Hepatotoxicity (moderate) reading for Cc1cnc(NCCCN(C)C)c2c1[nH]c1ccc3cc(O)ccc3c12 [INTOPLICINE] : 0

Hepatotoxicity (moderate) reading for CC1(C)S[C@@H]2[C@H](NC(=O)C(C(=O)O)c3ccccc3)C(=O)N2[C@H]1C(=O)O (stereo partly specified) [CARBENICILLIN] : 13

Hepatotoxicity (moderate) reading for CC(NC(C)(C)C)C(=O)c1cccc(Cl)c1 (stereo unspecified) [BUPROPION] : 1

Hepatotoxicity (moderate) reading for CC(=O)O[C@H]1C(=O)[C@@]2(C)[C@H]([C@H](OC(=O)c3ccccc3)[C@]3(O)C[C@H](OC(=O)[C@H](O)[C@@H](NC(=O)c4ccccc4)c4ccccc4)C(C)=C1C3(C)C)[C@]1(OC(C)=O)CO[C@@H]1C[C@@H]2O [PACLITAXEL] : 7

Hepatotoxicity (moderate) reading for CC(C)C(=O)Nc1ccc([N+](=O)[O-])c(C(F)(F)F)c1 [FLUTAMIDE] : 21

Hepatotoxicity (moderate) reading for CCN(CC)C(=O)/C(C#N)=C/c1cc(O)c(O)c([N+](=O)[O-])c1 [ENTACAPONE] : 1

Hepatotoxicity (moderate) reading for CCCCC(CC)COC(=O)CC(C(=O)OCC(CC)CCCC)S(=O)(=O)O (stereo unspecified) [DOCUSATE] : 1

Hepatotoxicity (moderate) reading for O=C(O)c1cccs1 [THIOPHENE CARBOXYLIC ACID] : 0

Hepatotoxicity (moderate) reading for O=C(O)CCCCCCNC1c2ccccc2CCc2ccccc21 [AMINEPTINE] : 6

Hepatotoxicity (moderate) reading for NC1CCN(c2nc3c(cc2F)c(=O)c(C(=O)O)cn3-c2ccc(F)cc2F)C1 (stereo unspecified) [TOSUFLOXACIN] : 3

Hepatotoxicity (moderate) reading for OCCN1CCN(CCCN2c3ccccc3Sc3ccc(C(F)(F)F)cc32)CC1 [FLUPHENAZINE] : 2

Hepatotoxicity (moderate) reading for O=C(O)Cc1nn(Cc2nc3cc(C(F)(F)F)ccc3s2)c(=O)c2ccccc12 [ZOPOLRESTAT] : 1
